Biological target: T1, Processed stabilized hMPV PreF trimer (115BV) (human metapneumovirus, strain B2)
T1 construct: also called Processed hMPV PreF trimer; processed PreF
Assay: BLI, ratio to unprocessed PreF trimer
Parameter: processed/unprocessed PreF trimer binding ratio

>>> reading("M2B06 (antibody, V domains shown, IgG) VH: QVQLQESGPRLVKPSGTLSLTCAVSGASITSSHWWTWVRQPPGKGLEWIGRIFHSGSTNYNPSLKSRVTISLDKSRNQFSLTLTSVTAADTAVYYCARDDQIVVMPAGFDRWGQGALVIVSS VL: DIQMTQSPSSLSASVGDRVTITCRASQTISSYLNWYQQTPGKAPNLLIYGASRLQGGVPSRFSGSGSGTDFTLTISSLQPEDFAIYFCQQSKSIPYTFGQGTRLEIK")
1.03
>>> reading("M2A02 (antibody, V domains shown, IgG) VH: QVQLVQSGAEVKRPGSSVKVSCKASGDIFSSHAISWVRQTPGQGLKWMGRIIPLVGIRNYAQDLQGRVTISADKSINTVYMELTNLRFDDTAVYYCARDRTDWSGGLDIWGQGTRVTVSS VL: EIVLTQSPATLSLSPGERATLSCRASQRIGSYLAWYQQKPGQAPRLLIYDASNRATGIPARFSGSGSGTDFTLTISRLEPEDSAIYYCQQRTDWFTFGGGTKVEIK")
0.3
>>> reading("M2E08 (antibody, V domains shown, IgG) VH: EVQLVESGGDLVLPGGSLRLSCEASGFMFSSYAMNWVRQAPGKGLERVSGISGSGGNTYYADSVKGRFTISRDNSKNIVYLQMNSLRAEDTAVYYCAKDLGNDYFYYIDVWGKGTTVMVSS VL: QSVLTQPPSVSGAPGQRVTISCTGTNFNIGAGYDVQWYQQLPGAAPKLLIHGNTYRPSGVPDRFSGSKSGTSASLAITGLQAEDEADYYCQSYDSSLSMVFGGGTKLTVL")
0.22

meta.source: patent US20240327502A1
